Where do the numbers come from? From patent US20150361176A1.

Biological target: T1, cynomolgus TGF-β RII/Fc (cynomolgus)
T1 construct: extracellular domain; also called Cyno TGFBRII; Cyno TGFbRII
Assay: SPR Biacore T200, receptor-Fc captured by anti-human IgG, dAb as analyte, 1:1 model
Reported values of koff for individual entries
Give your result in s⁻¹ as a bare value.

Examples with answers:
Problem: Which koff is listed for DOM23h-439-42 (DOM23h-439-25 + C-terminal Alanine + 61N) (VHH, human VH dAb) VHH: EVQLLESGGGLVQPGGSLRLSCAASGFTFGTEQMWWVRQAPGKGLEFVSRIDSPGGRTYYANSVKGRFTISRDNSKNTLYLQMNSLRAEDTAVYYCAKRRPTGVSGTFYDYWGQGTLVTVSS ?
Solution: 0.00041

Problem: And for DOM23h-271-131 (DOM23h-271-123 + C-terminal Alanine + 61N) (VHH, human VH dAb) VHH: EVQLLESGGGLVQPGGSLRLSCAASGSTFTEYRMWWVRQAPGKGLEWVSAIEPIGHRTYYANSVKGRFTISRDNSKNTLYLQMNSLRAEDTAVYYCAKQAPGEKWARRWDLDYWGQGTLVTVSS ?
Solution: 0.000144

Problem: And for DOM23h-439-40 (DOM23h-439-25 + C-terminal Alanine) (VHH, human VH dAb) VHH: EVQLLESGGGLVQPGGSLRLSCAASGFTFGTEQMWWVRQAPGKGLEFVSRIDSPGGRTYYADSVKGRFTISRDNSKNTLYLQMNSLRAEDTAVYYCAKRRPTGVSGTFYDYWGQGTLVTVSS ?
Solution: 0.00342

Continuing:
Problem: Which koff is listed for DOM23h-439-44 (DOM23h-439-25 + C-terminal Alanine + 61N64R) (VHH, human VH dAb) VHH: EVQLLESGGGLVQPGGSLRLSCAASGFTFGTEQMWWVRQAPGKGLEFVSRIDSPGGRTYYANSVRGRFTISRDNSKNTLYLQMNSLRAEDTAVYYCAKRRPTGVSGTFYDYWGQGTLVTVSS ?
Solution: 0.000147
